Where a name gives a salt, the structure may show the parent alone.
Form field: melting point (one value per entry).

Give the reported value of melting point for this record: CN(C)CCCCNCc1ccc(-c2cc3ccccc3c(-c3ccc(CNCCCCN(C)C)cc3)n2)cc1 (as salt: (cooh)2) [Compound 2a]
184 to 186 °C

Give the reported value of melting point for this record: CN(C)CCNCc1ccc(-c2nc(-c3ccc(CNCCN(C)C)cc3)c3ccccc3n2)cc1 (as salt: (cooh)2) [Compound 3c]
203 to 205 °C

Give the reported value of melting point for this record: COc1ccc2nc(-c3ccc(CNCCCN4CCN(C)CC4)cc3)cc(-c3ccc(CNCCCN4CCN(C)CC4)cc3)c2c1 (as salt: (cooh)2) [Compound 1l]
223 to 225 °C
